- assay.remarks: In vivo PK study (plasma and brain exposure)
- Set-up: species or system CD1 mouse
- test.parameters: male, CD1, po; mouse, p.o. 45 mg/kg, plasma; Tables 7 and 8; read-out: PO-45mpk AUClast-plasma
recorded.endpoint: AUC(0-t)

May I ask what AUC(0-t) has been recorded for COc1ccc(COc2ncc(Cc3ccnc4cc(-c5ccn(C)n5)cnc34)cc2OC)nc1 [Example 134] ?
88.4 µg·h/mL

Entry COc1cnc2c(Cc3cnc(OCc4cc5n(n4)CCOC5)c(OC)c3)ccnc2c1 [Example 73] has what AUC(0-t)?
214 µg·h/mL

# get_value(readout='AUC(0-t)', item= COc1ccc(COc2ncc(Cc3ccnc4cc(OC)cnc34)cc2OC)nc1 [Example 16] )
210 µg·h/mL

// lookup AUC(0-t) for COc1ccc(COc2ncc(Cc3ccnc4cc(N5CCN(C)CC5)cnc34)cc2OC)nc1 [Example 116]
4.62 µg·h/mL

Quick one: AUC(0-t) of CNC(=O)c1cc(Oc2ccc3nc(N[C@@H]4CCCC[C@H]4O)sc3c2)ccn1 [BLZ945, reference compound] ?
102 µg·h/mL

Requested read-out: AUC(0-t). Entry: COc1ccc(COc2ccc(Cc3cnc(N)nc3N)cc2OC)cc1 [GW2580, reference compound]
27 µg·h/mL

Return reported AUC(0-t); argument: COc1cnc2c(Cc3cnc(OCc4ccc(C(F)(F)F)nc4)c(OC)c3)ccnc2c1 [Example 45]
132 µg·h/mL

Recorded AUC(0-t) of COc1ncc(F)cc1CNc1ccc(Cc2c[nH]c3ncc(C)cc23)c(F)n1 [PLX5622, reference compound] , please.
163 µg·h/mL

AUC(0-t) for COc1ccc(COc2ncc(Cc3ccnc(-c4cnn(C)c4)n3)cc2OC)nc1 [Comparator A, reference compound] ?
181 µg·h/mL

Can you share its AUC(0-t)? I mean this molecule: COc1cnc2c(Cc3cnc(OCc4cc5n(n4)C[C@H](OC)C5)c(OC)c3)ccnc2c1 [Example 136]
93.2 µg·h/mL

====

Task for the reader: assign each of the following molecules its reported bioavailability.
- assay.remarks: In vivo PK study (plasma and brain exposure)
- Design: species or system CD1 mouse
- test.parameters: male, serum, oral; CD1 mouse, p.o. 45 mg/kg vs i.v. 2 mg/kg
Unit % implied. Number only.

Requested field: bioavailability. Item: COc1ccc(COc2ncc(Cc3ccnc(-c4cnn(C)c4)n3)cc2OC)nc1 [Comparator A, reference compound]
173

I would be grateful if you could share the reported bioavailability for COc1ncc(F)cc1CNc1ccc(Cc2c[nH]c3ncc(C)cc23)c(F)n1 [PLX5622, reference compound] .
118

State the recorded bioavailability for this entry: COc1ccc(COc2ccc(Cc3cnc(N)nc3N)cc2OC)cc1 [GW2580, reference compound]
135

Look at this molecule and give its reported bioavailability. CNC(=O)c1cc(Oc2ccc3nc(N[C@@H]4CCCC[C@H]4O)sc3c2)ccn1 [BLZ945, reference compound]
62.6

====

I'd be grateful if you could share measured pIC50 for these entries.
- measured.target: CSF-1R (Homo sapiens (Human), UniProt P07333)
- Sequence (P07333 20-972): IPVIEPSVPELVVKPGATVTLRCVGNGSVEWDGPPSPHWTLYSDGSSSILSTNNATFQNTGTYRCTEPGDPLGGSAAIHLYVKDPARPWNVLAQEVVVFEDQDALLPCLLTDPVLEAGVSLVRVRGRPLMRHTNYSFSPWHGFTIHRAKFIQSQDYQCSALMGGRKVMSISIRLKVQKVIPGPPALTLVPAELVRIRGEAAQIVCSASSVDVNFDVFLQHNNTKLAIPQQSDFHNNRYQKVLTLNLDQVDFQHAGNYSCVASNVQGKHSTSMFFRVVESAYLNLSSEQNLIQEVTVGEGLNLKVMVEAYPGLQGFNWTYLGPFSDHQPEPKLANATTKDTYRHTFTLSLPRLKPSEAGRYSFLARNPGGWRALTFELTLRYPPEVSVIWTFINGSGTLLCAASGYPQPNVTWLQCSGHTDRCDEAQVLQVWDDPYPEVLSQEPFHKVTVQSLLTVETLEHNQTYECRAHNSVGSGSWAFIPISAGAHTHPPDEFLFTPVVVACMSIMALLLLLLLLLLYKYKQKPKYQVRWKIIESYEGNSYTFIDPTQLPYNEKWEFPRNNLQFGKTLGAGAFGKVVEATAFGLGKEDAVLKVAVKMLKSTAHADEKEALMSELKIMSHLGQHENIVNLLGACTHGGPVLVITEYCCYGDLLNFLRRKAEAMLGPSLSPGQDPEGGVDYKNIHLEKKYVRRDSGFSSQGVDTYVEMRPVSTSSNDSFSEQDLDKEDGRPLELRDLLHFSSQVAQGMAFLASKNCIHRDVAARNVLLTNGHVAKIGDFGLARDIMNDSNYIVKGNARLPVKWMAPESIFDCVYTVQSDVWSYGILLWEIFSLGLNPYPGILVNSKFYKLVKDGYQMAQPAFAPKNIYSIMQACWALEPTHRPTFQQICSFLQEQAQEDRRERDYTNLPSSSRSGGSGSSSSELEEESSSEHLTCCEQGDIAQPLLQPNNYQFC
- assay.remarks: Biochemical HTRF kinase assay, CSF-1R;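 note: enzyme incubated with inhibitor plus a substrate and ATP mix for one hour at room temperature before HTRF detection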
- test.parameters: Table 2; recombinant human CSF-1R
Entry type: numeric. Quantity: pIC50, the -log10 of concentration in molar units.

Looking for the measured pIC50 of COc1cnc2c(Cc3ccc4nc([C@H]5CC[C@@H](OC)CC5)cnc4c3)ccnc2c1 [Example 155] , can you help?
6.59

Need pIC50 of COc1cnc2c(Cc3cnc(OCc4cc(C)n(C5CN(C)C5)n4)c(OC)c3)ccnc2c1 , thanks.
7.39

Name the recorded pIC50 for COc1cnc2c(Cc3cnc(OCc4cc(C(C)OC)n(C)n4)c(OC)c3)ccnc2c1 (stereo not drawn) .
8.40

For the compound shown here, COc1cnc2c(Cc3cnc(OCc4cc(C(C)C)no4)c(OC)c3)ccnc2c1 , give the reported pIC50.
8.92

Requested field: pIC50. Item: COc1cnc2c(Cc3cnc(OCc4cccn(C)c4=O)c(OC)c3)ccnc2c1
6.50

Can you share its pIC50? I mean this compound: COc1cnc(COc2ccc(Cc3ccnc4cc(OC)ccc34)cc2OC)nc1
7.03

Fill blank: measured pIC50 of the compound COc1cnc2c(Cc3cnc(OCc4ccc(OC)nc4)c(OC)c3)ccnc2c1 is ____.
9.00

Item COc1ccc(COc2ccc(Cc3ncnc4cc(OC)ccc34)cc2OC)cc1 has what recorded pIC50?
7.68

So what does the record say about pIC50 for COc1cnc2c(Cc3cnc(OCc4cc5n(n4)[C@H]4C[C@H]4C5)c(OC)c3)ccnc2c1 ?
8.66

For COc1ccc(COc2ncc(Cc3ccnc4cc(N(C)C)cnc34)cc2OC)nc1 , what is its reported pIC50?
8.66

// pIC50 lookup, key: COc1ccc2c(Cc3ccc(OCc4cnc(C)s4)c(OC)c3)ccnc2c1
7.79

Could you tell me which pIC50 is on file for COc1cnc2c(Cc3cnc(OCc4cc5n(n4)CC4CC54)c(OC)c3)ccnc2c1 (stereo not drawn) ?
8.72

Report pIC50 for COc1ccc(COc2ncc(C(C)c3ccnc4cc(OC)cnc34)cc2OC)nc1 (stereo not drawn) please.
6.99

Sample COc1ccc(COc2ncc(Cc3ccnc4cccnc34)cc2OC)nc1 — what was its pIC50?
8.01

Please give the measured pIC50 for this compound: COc1cnc2c(Cc3cnc(OCc4nc(C)no4)c(OC)c3)ccnc2c1
6.56

Query: pIC50; subject: COCc1cc(COc2ncc(Cc3ccnc4cc(OC)cnc34)cc2OC)nn1C
7.79

What does the data say about its pIC50? Entry: COc1ccc(COc2ncc(Cc3ccnc4cc(C)cnc34)cc2OC)nc1
7.78

What value of measured pIC50 is listed for COc1cnc2c(Cc3cnc(OCc4cc(C)no4)c(OC)c3)ccnc2c1 ?
7.65
